Known TGI of a selection of compounds
Tested on: EKVX NSCLC
runDescription: NCI tumour cell line growth inhibition, 48 h
recordedEndpoint: TGI

compound=COc1ccc(NC(=O)CC(=O)N/N=C/c2ccc(N(CCC#N)S(C)(=O)=O)cc2)cc1 result="> 100 µM"
compound="O=C(CC1(O)C(=O)Nc2c(Cl)ccc(Cl)c21)c1ccc(F)cc1 (stereo not given)" result="> 100 µM"
compound="Nc1nc(Cl)c(CO)c(NCC2(CO)CC(CCc3ccccc3)C2)n1 (stereo not given)" result="> 100 µM"
compound=O=C(Nc1ccncc1)C(=O)c1cn(S(=O)(=O)c2cccc(F)c2)c2ccccc12 result="> 100 µM"
compound=COC(=O)Nc1nc2ccc(Oc3ccc(NC(=O)Nc4cc(C(F)(F)F)ccc4F)cc3)cc2s1 result="> 25 µM"
compound=Nc1c(-c2ccc(Cl)cc2)[n+]([O-])c2ccccc2[n+]1[O-] result="> 100 µM"
compound=CC(=O)c1sc2c(c1OC(=O)c1ccco1)c(=O)n(-c1ccccc1)c(=S)n2-c1ccccc1 result="59.1 µM"
compound=O/N=C/c1ncccc1C1OCCO1 result="> 100 µM"
compound=CCOC(=O)NC(=O)c1cn(CCNCCO)c(=O)[nH]c1=O result="> 100 µM"
compound=CC/C=C\C[C@H](F)C/C=C1/C(=O)C=C[C@@H]1C/C=C\CCCC(=O)O result="25.1 µM"
